Test system: Strep. pneumoniae L44 UC41
Assay Notes: MIC, microbroth dilution
Assay type: cell-based
Condition Parameters: inocula 10^4 to 10^5 CFU/ml, 18-24 h, 37° C.
Parameter MIC: see the listing below.
Just the number in microgram/ml, nothing appended.

Reference set, count: 5
>>> result_number("CNC(=O)CC1NC(=O)c2nc(sc2CO)C(C(C)C)NC(=O)c2csc(n2)-c2ccc(-c3nc(C(=O)NCCCCCC(=O)O)cs3)nc2-c2csc(n2)-c2csc(n2)C(C(O)c2ccccc2)NC(=O)CNC(=O)c2nc1sc2C (stereo not shown) [Compound 44]")
1
>>> result_number("CNC(=O)CC1NC(=O)c2nc(sc2COC)C(C(C)C)NC(=O)c2csc(n2)-c2ccc(-c3nc(C(=O)NCCN(C)C)cs3)nc2-c2csc(n2)-c2csc(n2)C(C(O)c2ccccc2)NC(=O)CNC(=O)c2nc1sc2C (stereo not shown) [Compound 32]")
1
>>> result_number("CNC(=O)CC1NC(=O)c2nc(sc2COC)C(C(C)C)NC(=O)c2csc(n2)-c2ccc(-c3nc(C(=O)NCCOCCC(=O)O)cs3)nc2-c2csc(n2)-c2csc(n2)C(C(O)c2ccccc2)NC(=O)CNC(=O)c2nc1sc2C (stereo not shown) [Compound 41]")
2
>>> result_number("CNC(=O)CC1NC(=O)c2nc(sc2COC)C(C(C)C)NC(=O)c2csc(n2)-c2ccc(-c3nc(C(=O)NCCCN)cs3)nc2-c2csc(n2)-c2csc(n2)C(C(O)c2ccccc2)NC(=O)CNC(=O)c2nc1sc2C.O=C(O)C(F)(F)F (stereo not shown) [Compound 36]")
4
>>> result_number("CNC(=O)CC1NC(=O)c2nc(sc2COC)C(C(C)C)NC(=O)c2csc(n2)-c2ccc(-c3nc(C(=O)NCCSCCC(=O)O)cs3)nc2-c2csc(n2)-c2csc(n2)C(C(O)c2ccccc2)NC(=O)CNC(=O)c2nc1sc2C (stereo not shown) [Compound 39]")
4

What does the record list as MIC for Cc1sc2nc1C(=O)NCC(=O)NC(C(O)c1ccccc1)c1nc(cs1)-c1nc(cs1)-c1nc(-c3nc(C(=O)NCCCCCC(=O)O)cs3)ccc1-c1nc(cs1)C(=O)NC(C(C)C)c1nc(cs1)C(=O)NC2CC(N)=O (stereo not shown) [Compound 43] ?
0.5
